Details: cell viability/%
Where a SMILES comes first, the peptide text is derived from it. [ ]: non-standard residue; d: D form. The star is where a group is joined. NHCH2CH2OH = OCCN*; For = O=C*

Compound: CC(C)C[C@@H](NC(=O)[C@H](C)NC(=O)[C@H](NC(=O)[C@H](C)NC(=O)CNC(=O)[C@@H](NC=O)C(C)C)C(C)C)C(=O)N[C@H](C(=O)N[C@H](CC(C)C)C(=O)N[C@@H](Cc1c[nH]c2ccccc12)C(=O)N[C@@H](C(=O)N[C@@H](Cc1c[nH]c2ccccc12)C(=O)N[C@@H](C(=O)N[C@@H](Cc1c[nH]c2ccccc12)C(=O)N[C@@H](C(=O)N[C@@H](Cc1c[nH]c2ccccc12)C(=O)NCCO)C(C)C)C(C)C)[C@H](C)O)C(C)C [compound 8554] (For-VGA[dV]A[dL]V[dL]W[dT]W[dV]W[dV]W-NHCH2CH2OH)
viability, %: 61.3
//
Compound: CC(C)C[C@@H](NC(=O)[C@H](C)NC(=O)CNC(=O)[C@@H](NC=O)C(C)C)C(=O)N[C@@H](C)C(=O)N[C@@H](C(=O)N[C@H](C(=O)N[C@@H](C(=O)N[C@@H](Cc1c[nH]c2ccccc12)C(=O)N[C@@H](C(=O)N[C@@H](Cc1c[nH]c2ccccc12)C(=O)N[C@@H](C(=O)N[C@@H](Cc1c[nH]c2ccccc12)C(=O)N[C@@H](C(=O)N[C@@H](Cc1c[nH]c2ccccc12)C(=O)NCCO)C(C)C)C(C)C)C(C)C)C(C)C)C(C)C)C(C)C [compound 725] (For-VGA[dL]A[dV]V[dV]W[dV]W[dV]W[dV]W-NHCH2CH2OH)
viability, %: 100
